assay: cells; settings: Mus musculus, BaF3, 72 h
Assay Readout: pIC50
pIC50 field: float, defined as -log10 of concentration (mol/L).

Problem: Please report the recorded pIC50 for Cc1cn(-c2cc(NC(=O)c3ccc(C)c(Nc4nccc(-c5cccnc5)n4)c3)cc(C(F)(F)F)c2)cn1 .
Result: 4.80

Problem: Please report the recorded pIC50 for Cc1ccc(C(=O)Nc2ccc(CN3CCN(C)CC3)c(C(F)(F)F)c2)cc1C#Cc1cnc2[nH]ncc2c1 .
Result: 8.15

Problem: Please report the recorded pIC50 for Cc1nc(Nc2ncc(C(=O)Nc3c(C)cccc3Cl)s2)cc(N2CCN(CCO)CC2)n1 .
Result: 5.44

Problem: Please report the recorded pIC50 for Cc1ccc(NC(=O)c2ccc(CN3CCN(C)CC3)cc2)cc1Nc1nccc(-c2cccnc2)n1 .
Result: 4.91

====

target: Tyrosine-protein kinase ABL1 (Homo sapiens, UniProt P00519, M351T); assay: Inhibition of human recombinant ABL1 M351T mutant expressed in insect cells after 30 mins by FRET assay
Assay Readout: IC50 (pM)
# number only, unit pM dropped from output

Problem: Find the measured IC50: item Cc1ccc(C(=O)Nc2ccc(CN3CCN(C)CC3)c(C(F)(F)F)c2)cc1C#Cc1cnc2[nH]ncc2c1 [OLVEREMBATINIB] , target or system Tyrosine-protein kinase ABL1 (Homo sapiens, UniProt P00519, M351T).
Result: 290

====

Provide the reported IC50 of each item.
assay: cells; settings: Mus musculus, BaF3, 72 h

Problem: Please report the recorded IC50 for Cc1ccc(NC(=O)c2ccc(CN3CCN(C)CC3)cc2)cc1Nc1nccc(-c2cccnc2)n1 .
Result: 5200 nM

Problem: Please report the recorded IC50 for Cc1cn(-c2cc(NC(=O)c3ccc(C)c(Nc4nccc(-c5cccnc5)n4)c3)cc(C(F)(F)F)c2)cn1 .
Result: 150 nM

Problem: Please report the recorded IC50 for Cc1ccc(C(=O)Nc2ccc(CN3CCN(C)CC3)c(C(F)(F)F)c2)cc1C#Cc1cnc2[nH]ncc2c1 .
Result: 6 nM

Problem: Please report the recorded IC50 for Cc1nc(Nc2ncc(C(=O)Nc3c(C)cccc3Cl)s2)cc(N2CCN(CCO)CC2)n1 .
Result: 5.1 nM

====

target: Cytochrome P450 2C19 (Homo sapiens); assay: Inhibition of human recombinant CYP2C19 after 30 mins
Sequence (P33261 whole entry): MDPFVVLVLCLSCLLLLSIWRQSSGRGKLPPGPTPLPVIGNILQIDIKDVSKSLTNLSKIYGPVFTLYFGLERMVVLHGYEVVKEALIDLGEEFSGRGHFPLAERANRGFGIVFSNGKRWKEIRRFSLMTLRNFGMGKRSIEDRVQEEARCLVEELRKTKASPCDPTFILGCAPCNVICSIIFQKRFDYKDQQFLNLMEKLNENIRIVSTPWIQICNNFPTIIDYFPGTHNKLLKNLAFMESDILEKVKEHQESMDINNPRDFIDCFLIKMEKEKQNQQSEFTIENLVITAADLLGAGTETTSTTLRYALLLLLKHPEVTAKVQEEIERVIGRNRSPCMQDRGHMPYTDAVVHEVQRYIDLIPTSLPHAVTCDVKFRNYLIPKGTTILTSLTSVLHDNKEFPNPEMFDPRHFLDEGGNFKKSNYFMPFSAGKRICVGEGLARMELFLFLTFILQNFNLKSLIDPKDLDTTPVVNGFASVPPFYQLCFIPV
Assay Readout: pIC50
pIC50 field: float, defined as -log10 of concentration (mol/L).

Problem: Please report the recorded pIC50 for Cc1ccc(C(=O)Nc2ccc(CN3CCN(C)CC3)c(C(F)(F)F)c2)cc1C#Cc1cnc2[nH]ncc2c1 .
Result: 6.00

====

Provide the reported IC50 of each item.
assay: Cytotoxicity against mouse BA/F3 cells expressing BCR-ABL Y253H mutant assessed as growth inhibition after 72 hrs by CCK-8 assay; details: BaF3, 72 h
# number only, unit nM dropped from output

Problem: Please report the recorded IC50 for Cc1cn(-c2cc(NC(=O)c3ccc(C)c(Nc4nccc(-c5cccnc5)n4)c3)cc(C(F)(F)F)c2)cn1 .
Result: 1000

Problem: Please report the recorded IC50 for Cc1nc(Nc2ncc(C(=O)Nc3c(C)cccc3Cl)s2)cc(N2CCN(CCO)CC2)n1 .
Result: 2.3

Problem: Please report the recorded IC50 for Cc1ccc(NC(=O)c2ccc(CN3CCN(C)CC3)cc2)cc1Nc1nccc(-c2cccnc2)n1 .
Result: 12500

Problem: Please report the recorded IC50 for Cc1ccc(C(=O)Nc2ccc(CN3CCN(C)CC3)c(C(F)(F)F)c2)cc1C#Cc1cnc2[nH]ncc2c1 .
Result: 3

====

assay: Apparent permeability from apical to basolateral side in human Caco2 cells by LC-MS/MS analysis; format: ADME, cell-based; details: Caco-2
Assay Readout: Papp A→B (×10⁻⁶ cm/s)
# number only, unit ×10⁻⁶ cm/s dropped from output

Problem: Please report the recorded Papp A→B for Cc1ccc(C(=O)Nc2ccc(CN3CCN(C)CC3)c(C(F)(F)F)c2)cc1C#Cc1cnc2[nH]ncc2c1 .
Result: 0.32

====

test: Plasma concentration in rat after 12 hrs; assay type: ADME
Assay Readout: concentration at 12 h
Enter the number, and then the unit.

Problem: Please report the recorded concentration at 12 h for Cc1ccc(C(=O)Nc2ccc(CN3CCN(C)CC3)c(C(F)(F)F)c2)cc1C#Cc1cnc2[nH]ncc2c1 .
Result: 270 nM

====

biological target: Tyrosine-protein kinase ABL1 (Homo sapiens, UniProt P00519, T315I); test: Binding affinity to non phosphorylated ABL1 T315I mutant (unknown origin) after 1 hr
Assay Readout: pKd
pKd field: float, defined as -log10 of concentration (mol/L).

Problem: Please report the recorded pKd for Cc1ccc(C(=O)Nc2ccc(CN3CCN(C)CC3)c(C(F)(F)F)c2)cc1C#Cc1cnc2[nH]ncc2c1 .
Result: 9.15

====

assay: AUC (0 to t) in rat at 25 mg/kg, po; type: ADME, organism-based; parameters: dose 25 mg/kg, route oral; settings: plasma
Assay Readout: AUC(0-t) (ng·h/mL)
# number only, unit ng·h/mL dropped from output

Problem: Please report the recorded AUC(0-t) for Cc1ccc(C(=O)Nc2ccc(CN3CCN(C)CC3)c(C(F)(F)F)c2)cc1C#Cc1cnc2[nH]ncc2c1 .
Result: 6700

====

assay: Mean residence time in rat at 25 mg/kg, po; format: ADME, organism-based; set-up: dose 25 mg/kg, route oral; settings: in vivo
Assay Readout: MRT (h)
# number only, unit h dropped from output

Problem: Please report the recorded MRT for Cc1ccc(C(=O)Nc2ccc(CN3CCN(C)CC3)c(C(F)(F)F)c2)cc1C#Cc1cnc2[nH]ncc2c1 .
Result: 17.9

====

molecular target: Tyrosine-protein kinase ABL1 (Homo sapiens, UniProt P00519, H396P); assay: Binding affinity to non phosphorylated ABL1 H396P mutant (unknown origin) after 1 hr
Assay Readout: Kd
Enter the number, and then the unit.

Problem: Please report the recorded Kd for Cc1ccc(C(=O)Nc2ccc(CN3CCN(C)CC3)c(C(F)(F)F)c2)cc1C#Cc1cnc2[nH]ncc2c1 .
Result: 0.18 nM

====

biological target: Tyrosine-protein kinase ABL1 (Homo sapiens, UniProt P00519, E255K); assay: Inhibition of human recombinant ABL1 E255K mutant expressed in insect cells after 30 mins by FRET assay
Assay Readout: IC50 (nM)
# number only, unit nM dropped from output

Problem: Please report the recorded IC50 for Cc1ccc(C(=O)Nc2ccc(CN3CCN(C)CC3)c(C(F)(F)F)c2)cc1C#Cc1cnc2[nH]ncc2c1 .
Result: 0.27

====

Assay Readout: pIC50
pIC50 field: float, defined as -log10 of concentration (mol/L).

Problem: Find the measured pIC50: item Cc1ccc(C(=O)Nc2ccc(CN3CCN(C)CC3)c(C(F)(F)F)c2)cc1C#Cc1cnc2[nH]ncc2c1 , target or system Tyrosine-protein kinase ABL1 (Homo sapiens, UniProt P00519, G250E).
Result: 9.15

====

molecular target: Tyrosine-protein kinase ABL1 (Homo sapiens, UniProt P00519, E255K); test: Binding affinity to phosphorylated ABL1 E255K mutant (unknown origin) after 1 hr
Assay Readout: pKd
pKd field: float, defined as -log10 of concentration (mol/L).

Problem: Please report the recorded pKd for Cc1ccc(C(=O)Nc2ccc(CN3CCN(C)CC3)c(C(F)(F)F)c2)cc1C#Cc1cnc2[nH]ncc2c1 .
Result: 9.55

====

molecular target: Tyrosine-protein kinase ABL1 (Homo sapiens, UniProt P00519, Y253F); experiment: Inhibition of human recombinant ABL1 Y253F mutant expressed in insect cells after 30 mins by FRET assay
Assay Readout: IC50 (nM)
# number only, unit nM dropped from output

Problem: Please report the recorded IC50 for Cc1ccc(C(=O)Nc2ccc(CN3CCN(C)CC3)c(C(F)(F)F)c2)cc1C#Cc1cnc2[nH]ncc2c1 .
Result: 0.35

====

test: Tmax in rat at 25 mg/kg, po; format: ADME, organism-based; set-up: dose 25 mg/kg, route oral; conditions: in vivo
Assay Readout: Tmax (h)
# number only, unit h dropped from output

Problem: Please report the recorded Tmax for Cc1ccc(C(=O)Nc2ccc(CN3CCN(C)CC3)c(C(F)(F)F)c2)cc1C#Cc1cnc2[nH]ncc2c1 .
Result: 4

====

assay: Intrinsic clearance in rat liver microsomes at 1 uM; format: ADME, Microsome; details: read-out: CLH
Assay Readout: microsomal CLint at 1 µM

Problem: Please report the recorded microsomal CLint at 1 µM for Cc1ccc(C(=O)Nc2ccc(CN3CCN(C)CC3)c(C(F)(F)F)c2)cc1C#Cc1cnc2[nH]ncc2c1 .
Result: 36.4 µL/min/mg

====

assay: Apparent permeability from basolateral to apical side in human Caco2 cells by LC-MS/MS analysis; format: ADME, cell-based; conditions: Caco-2
Assay Readout: Papp B→A
Enter the number, and then the unit.

Problem: Please report the recorded Papp B→A for Cc1ccc(C(=O)Nc2ccc(CN3CCN(C)CC3)c(C(F)(F)F)c2)cc1C#Cc1cnc2[nH]ncc2c1 .
Result: 0.28 ×10⁻⁶ cm/s

====

Provide the reported IC50 of each item.
assay: Cytotoxicity against mouse BA/F3 cells expressing wild type BCR-ABL assessed as growth inhibition after 72 hrs by CCK-8 assay; details: BaF3, 72 h
# number only, unit nM dropped from output

Problem: Please report the recorded IC50 for Cc1ccc(C(=O)Nc2ccc(CN3CCN(C)CC3)c(C(F)(F)F)c2)cc1C#Cc1cnc2[nH]ncc2c1 .
Result: 1

Problem: Please report the recorded IC50 for Cc1cn(-c2cc(NC(=O)c3ccc(C)c(Nc4nccc(-c5cccnc5)n4)c3)cc(C(F)(F)F)c2)cn1 .
Result: 22

Problem: Please report the recorded IC50 for Cc1nc(Nc2ncc(C(=O)Nc3c(C)cccc3Cl)s2)cc(N2CCN(CCO)CC2)n1 .
Result: 1.9

Taken from ChEMBL document CHEMBL2311339.
